- TARGET DESC: Protein kinase C alpha type (Homo sapiens); note: in the data inactive means no Kd found up to 30 µM
Active and inactive are the calls of the source.
Outcomes: active, inactive

[
  {
    "MOLECULE": "CC[C@@](C)(Nc1ccnc(-c2c[nH]c3ncccc23)n1)C(=O)NCC(F)(F)F [DECERNOTINIB]",
    "DISCRETE LABEL": "active"
  },
  {
    "MOLECULE": "c1cc(OCCN2CCCCC2)cc(-c2n[nH]c3ccc(-c4nc[nH]n4)cc23)c1 [CC-401]",
    "DISCRETE LABEL": "inactive"
  },
  {
    "MOLECULE": "S=C(NCc1ccc2c(c1)OCO2)N1CCN(c2ncnc3c2oc2ccccc23)CC1 [AMUVATINIB]",
    "DISCRETE LABEL": "inactive"
  }
]

----------
- TARGET DESC: Serine/threonine-protein kinase 10 (Homo sapiens, UniProt O94804); note: in the data inactive means no Kd found up to 30 µM
- Sequence (O94804 whole entry): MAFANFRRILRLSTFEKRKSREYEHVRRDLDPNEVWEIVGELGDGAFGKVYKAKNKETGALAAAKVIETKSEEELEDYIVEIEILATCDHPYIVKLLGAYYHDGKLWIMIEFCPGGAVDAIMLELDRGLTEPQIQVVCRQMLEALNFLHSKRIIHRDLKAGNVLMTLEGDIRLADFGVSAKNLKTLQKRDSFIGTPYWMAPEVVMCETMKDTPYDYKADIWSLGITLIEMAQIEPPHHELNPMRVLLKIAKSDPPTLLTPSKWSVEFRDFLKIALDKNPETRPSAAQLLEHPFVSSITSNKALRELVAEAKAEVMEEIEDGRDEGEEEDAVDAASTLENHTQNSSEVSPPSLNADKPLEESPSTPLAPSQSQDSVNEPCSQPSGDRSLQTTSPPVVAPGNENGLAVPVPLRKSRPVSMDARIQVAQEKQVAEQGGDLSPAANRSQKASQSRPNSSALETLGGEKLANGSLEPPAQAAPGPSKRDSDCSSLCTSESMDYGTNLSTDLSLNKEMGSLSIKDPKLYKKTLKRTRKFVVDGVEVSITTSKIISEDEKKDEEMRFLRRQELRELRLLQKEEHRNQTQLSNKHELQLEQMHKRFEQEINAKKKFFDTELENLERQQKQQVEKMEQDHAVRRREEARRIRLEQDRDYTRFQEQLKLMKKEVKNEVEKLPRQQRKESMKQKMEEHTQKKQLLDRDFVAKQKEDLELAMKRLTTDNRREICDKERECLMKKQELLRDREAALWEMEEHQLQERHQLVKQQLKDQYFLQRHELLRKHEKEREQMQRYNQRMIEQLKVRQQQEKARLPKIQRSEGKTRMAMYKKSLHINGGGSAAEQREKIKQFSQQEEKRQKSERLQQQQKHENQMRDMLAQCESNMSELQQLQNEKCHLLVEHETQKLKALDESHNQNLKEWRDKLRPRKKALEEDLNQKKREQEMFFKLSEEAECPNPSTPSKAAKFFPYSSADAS
Activity calls are given as the source filed them.
Outcomes: active, inactive

[
  {
    "MOLECULE": "C#Cc1cccc(Nc2ncnc3cc4c(cc23)OCCOCCOCCO4)c1 [ICOTINIB]",
    "TARGET DESC": "Serine/threonine-protein kinase 10 (Homo sapiens, UniProt O94804)",
    "DISCRETE LABEL": "active"
  },
  {
    "MOLECULE": "COCCN1CCN(Cc2ccc(-c3n[nH]c4c3C(=O)c3c(NC(=O)NN5CCOCC5)cccc3-4)cc2)CC1 [RGB-286638]",
    "TARGET DESC": "Serine/threonine-protein kinase 10 (Homo sapiens, UniProt O94804)",
    "DISCRETE LABEL": "inactive"
  },
  {
    "MOLECULE": "Cc1c(Cn2c(C)nc3c(C(=O)O)cc(N4CCOCC4)cc32)cccc1C(F)(F)F [GSK-2636771]",
    "TARGET DESC": "Serine/threonine-protein kinase 10 (Homo sapiens, UniProt O94804)",
    "DISCRETE LABEL": "inactive"
  },
  {
    "MOLECULE": "COc1cccc2cc(-c3nc([C@H]4CC[C@H](C(=O)O)CC4)n4ncnc(N)c34)[nH]c12 [OSI-027]",
    "TARGET DESC": "Serine/threonine-protein kinase 10 (Homo sapiens, UniProt O94804)",
    "DISCRETE LABEL": "inactive"
  },
  {
    "MOLECULE": "O[C@H]1CC[C@H](Nc2ncc3nc(Nc4c(F)cc(F)cc4F)n([C@H]4CCOC4)c3n2)CC1 [TANZISERTIB]",
    "TARGET DESC": "Serine/threonine-protein kinase 10 (Homo sapiens, UniProt O94804)",
    "DISCRETE LABEL": "inactive"
  },
  {
    "MOLECULE": "O=C(NC[C@H](O)CO)c1ccncc1Nc1ccc(I)cc1F [PIMASERTIB]",
    "TARGET DESC": "Serine/threonine-protein kinase 10 (Homo sapiens, UniProt O94804)",
    "DISCRETE LABEL": "inactive"
  },
  {
    "MOLECULE": "Cc1ccc(C(=O)Nc2ccc(Oc3cc4cnn(C)c4cc3-c3cn[nH]c3)c(F)c2)c(=O)n1-c1ccc(F)cc1 [MERESTINIB]",
    "TARGET DESC": "Serine/threonine-protein kinase 10 (Homo sapiens, UniProt O94804)",
    "DISCRETE LABEL": "inactive"
  },
  {
    "MOLECULE": "CC(C)CC(=O)Nc1[nH]nc2c1CN(C(=O)C1CCN(C)CC1)C2(C)C [PHA-793887]",
    "TARGET DESC": "Serine/threonine-protein kinase 10 (Homo sapiens, UniProt O94804)",
    "DISCRETE LABEL": "inactive"
  },
  {
    "MOLECULE": "CC1(COc2ccc3c(c2)ncn3-c2ccc3cccc(N4CCC(N)CC4)c3n2)COC1 [CRENOLANIB]",
    "TARGET DESC": "Serine/threonine-protein kinase 10 (Homo sapiens, UniProt O94804)",
    "DISCRETE LABEL": "active"
  },
  {
    "MOLECULE": "NC(=O)c1ccc(N(C(N)=O)c2c(F)cccc2F)nc1-c1ccc(F)cc1F [VX-702]",
    "TARGET DESC": "Serine/threonine-protein kinase 10 (Homo sapiens, UniProt O94804)",
    "DISCRETE LABEL": "inactive"
  }
]

----------
- TARGET DESC: Phosphatidylinositol 5-phosphate 4-kinase type-2 gamma (Homo sapiens, UniProt Q8TBX8); note: in the data inactive means no Kd found up to 30 µM
- Sequence (Q8TBX8 whole entry): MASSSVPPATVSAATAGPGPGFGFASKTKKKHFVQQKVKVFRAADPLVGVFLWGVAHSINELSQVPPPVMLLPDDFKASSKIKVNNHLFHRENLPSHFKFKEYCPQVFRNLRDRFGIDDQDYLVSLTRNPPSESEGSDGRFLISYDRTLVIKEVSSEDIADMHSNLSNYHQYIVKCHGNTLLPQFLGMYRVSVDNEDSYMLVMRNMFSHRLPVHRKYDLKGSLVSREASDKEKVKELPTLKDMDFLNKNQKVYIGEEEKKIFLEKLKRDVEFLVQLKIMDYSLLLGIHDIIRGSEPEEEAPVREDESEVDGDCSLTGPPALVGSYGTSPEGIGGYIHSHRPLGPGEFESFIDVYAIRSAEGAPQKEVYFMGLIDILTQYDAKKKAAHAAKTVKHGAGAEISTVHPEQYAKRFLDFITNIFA
The source made the active and inactive calls.
Outcomes: active, inactive

[
  {
    "COMPOUND": "COc1cc2nccc(Oc3ccc(NC(=O)C4(C(=O)Nc5ccc(F)cc5)CC4)cc3)c2cc1OC [CABOZANTINIB]",
    "TARGET DESC": "Phosphatidylinositol 5-phosphate 4-kinase type-2 gamma (Homo sapiens, UniProt Q8TBX8)",
    "DISCRETE LABEL": "active"
  },
  {
    "COMPOUND": "CCc1nc(C(N)=O)c(Nc2ccc(N3CCC(N4CCN(C)CC4)CC3)c(OC)c2)nc1NC1CCOCC1 [GILTERITINIB]",
    "TARGET DESC": "Phosphatidylinositol 5-phosphate 4-kinase type-2 gamma (Homo sapiens, UniProt Q8TBX8)",
    "DISCRETE LABEL": "inactive"
  },
  {
    "COMPOUND": "NC(=O)c1ccc(N(C(N)=O)c2c(F)cccc2F)nc1-c1ccc(F)cc1F [VX-702]",
    "TARGET DESC": "Phosphatidylinositol 5-phosphate 4-kinase type-2 gamma (Homo sapiens, UniProt Q8TBX8)",
    "DISCRETE LABEL": "inactive"
  },
  {
    "COMPOUND": "Cc1cc(Nc2nc(N[C@@H](C)c3ncc(F)cn3)ncc2Cl)n[nH]1 [AZD-1480]",
    "TARGET DESC": "Phosphatidylinositol 5-phosphate 4-kinase type-2 gamma (Homo sapiens, UniProt Q8TBX8)",
    "DISCRETE LABEL": "inactive"
  }
]

----------
- TARGET DESC: Tyrosine-protein kinase ABL1 (Homo sapiens); note: in the data inactive means no Kd found up to 30 µM
- Sequence (P00519 whole entry): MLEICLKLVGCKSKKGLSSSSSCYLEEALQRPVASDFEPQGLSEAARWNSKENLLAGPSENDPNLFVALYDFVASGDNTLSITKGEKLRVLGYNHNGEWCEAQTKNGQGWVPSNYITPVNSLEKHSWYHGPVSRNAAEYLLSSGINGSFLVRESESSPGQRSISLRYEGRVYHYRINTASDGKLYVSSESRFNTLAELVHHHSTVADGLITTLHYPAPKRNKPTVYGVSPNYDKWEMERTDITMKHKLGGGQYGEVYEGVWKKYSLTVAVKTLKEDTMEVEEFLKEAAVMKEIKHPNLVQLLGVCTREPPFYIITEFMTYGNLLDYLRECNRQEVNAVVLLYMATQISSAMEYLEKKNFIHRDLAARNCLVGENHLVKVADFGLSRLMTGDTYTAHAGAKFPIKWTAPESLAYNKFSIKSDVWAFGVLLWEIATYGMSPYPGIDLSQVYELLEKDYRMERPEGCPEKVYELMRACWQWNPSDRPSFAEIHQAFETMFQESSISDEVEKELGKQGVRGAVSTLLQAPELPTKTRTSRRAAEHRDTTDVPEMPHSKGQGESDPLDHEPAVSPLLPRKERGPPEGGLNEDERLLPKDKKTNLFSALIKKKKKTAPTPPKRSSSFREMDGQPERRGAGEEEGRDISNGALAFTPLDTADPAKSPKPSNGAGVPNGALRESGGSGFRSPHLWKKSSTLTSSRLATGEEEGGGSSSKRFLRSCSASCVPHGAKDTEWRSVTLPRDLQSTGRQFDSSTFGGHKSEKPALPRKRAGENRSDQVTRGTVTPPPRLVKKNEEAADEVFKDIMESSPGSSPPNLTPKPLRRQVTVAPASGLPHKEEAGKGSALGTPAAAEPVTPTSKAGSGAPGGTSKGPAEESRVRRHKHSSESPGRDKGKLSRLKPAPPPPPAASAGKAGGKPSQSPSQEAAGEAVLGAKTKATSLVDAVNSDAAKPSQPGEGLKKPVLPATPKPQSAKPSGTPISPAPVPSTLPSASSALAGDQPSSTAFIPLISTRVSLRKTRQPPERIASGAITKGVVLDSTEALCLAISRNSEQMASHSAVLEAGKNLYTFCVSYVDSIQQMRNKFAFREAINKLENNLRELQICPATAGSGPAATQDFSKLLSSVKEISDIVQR
Activity calls are given as the source filed them.
Outcomes: T (active), F (inactive)

[
  {
    "COMPOUND STRING": "COc1cc2ncnc(Nc3ccc(O)cc3)c2cc1OC",
    "DISCRETE LABEL": "F"
  },
  {
    "COMPOUND STRING": "NC(=O)c1ccc(N(C(N)=O)c2c(F)cccc2F)nc1-c1ccc(F)cc1F",
    "DISCRETE LABEL": "F"
  },
  {
    "COMPOUND STRING": "S=C(NCc1ccc2c(c1)OCO2)N1CCN(c2ncnc3c2oc2ccccc23)CC1",
    "DISCRETE LABEL": "F"
  },
  {
    "COMPOUND STRING": "O[C@H]1CC[C@H](Nc2ncc3nc(Nc4c(F)cc(F)cc4F)n([C@H]4CCOC4)c3n2)CC1",
    "DISCRETE LABEL": "F"
  },
  {
    "COMPOUND STRING": "O=C(NC[C@H](O)CO)c1ccncc1Nc1ccc(I)cc1F",
    "DISCRETE LABEL": "F"
  },
  {
    "COMPOUND STRING": "Cc1c(NC(=O)OC[C@@H]2COCCN2)cn2ncnc(Nc3ccc4c(cnn4Cc4cccc(F)c4)c3)c12",
    "DISCRETE LABEL": "F"
  },
  {
    "COMPOUND STRING": "CNC(=O)c1cccc(-c2ccc3c(N4CCOC[C@@H]4C)nc(N4CCOC[C@@H]4C)nc3n2)c1",
    "DISCRETE LABEL": "F"
  },
  {
    "COMPOUND STRING": "O=C(NOC[C@H](O)CO)c1ccc(F)c(F)c1Nc1ccc(I)cc1F",
    "DISCRETE LABEL": "F"
  },
  {
    "COMPOUND STRING": "Cn1c(=O)c(F)c(Nc2ccc(I)cc2F)c2c(=O)n(C[C@@H](O)CO)cnc21",
    "DISCRETE LABEL": "F"
  },
  {
    "COMPOUND STRING": "O=S(=O)(c1cccc2cnccc12)N1CCCNCC1",
    "DISCRETE LABEL": "F"
  },
  {
    "COMPOUND STRING": "c1cc(OCCN2CCCCC2)cc(-c2n[nH]c3ccc(-c4nc[nH]n4)cc23)c1",
    "DISCRETE LABEL": "F"
  },
  {
    "COMPOUND STRING": "CNC(=O)c1cc(COc2nnc(Nc3ccc(Cl)cc3)c3ccoc23)ccn1",
    "DISCRETE LABEL": "F"
  },
  {
    "COMPOUND STRING": "C=CCN(/C=C1/C(=O)O[C@H](COC)[C@@]2(C)C1=C(O)C(=O)C1=C2[C@H](OC(C)=O)C[C@]2(C)C(=O)CC[C@@H]12)CC=C",
    "DISCRETE LABEL": "F"
  },
  {
    "COMPOUND STRING": "COc1cc2ncnc3c2cc1OCCCCCN(C)Cc1ccc(Br)cc1N3",
    "DISCRETE LABEL": "F"
  },
  {
    "COMPOUND STRING": "CNC(=O)c1ccc(Nc2ncc(C(F)(F)F)c(NCc3nccnc3N(C)S(C)(=O)=O)n2)cc1",
    "DISCRETE LABEL": "F"
  },
  {
    "COMPOUND STRING": "Cc1cc(C(=O)Nc2cc(Oc3ccc4nc(NC(=O)C5CC5)cn4n3)ccc2C)n(C)n1",
    "DISCRETE LABEL": "T"
  },
  {
    "COMPOUND STRING": "CCc1cc2c(cc1N1CCC(N3CCOCC3)CC1)C(C)(C)c1[nH]c3cc(C#N)ccc3c1C2=O",
    "DISCRETE LABEL": "F"
  }
]
